For each of the compounds below, state its log10 of IC50.
- target-under-test: RPS10 (Homo sapiens)
- Construct: made in house; host or cells: E. coli BL-21
- Type: binding
- particulars: summary table; fluorescence binding assay; read-out: IC50 concentration (µM), RPS10
The base-10 logarithm of IC50, taken with IC50 in µM, is what appears here.

{"compound": "O=C(COc1ccccc1[N+](=O)[O-])NCc1ccc(-c2ccc(Br)cc2)o1 [1Ai-4700]", "observed": 0.69}
{"compound": "C=CCNC(=O)CN1CCN(Cc2nc3cc(-c4ccc(Cl)cc4)sc3c(=O)[nH]2)CC1 [1Ai-1524]", "observed": 1.23}
{"compound": "Cc1cc(-n2c(C)cc(-c3csc(N)n3)c2C)no1 [1Ai-6464]", "observed": 0.81}

Quick request: log10 of IC50 for each listed item, please.
1. O=C(CSc1nc(-c2ccccc2)cn1-c1ccccc1)NC(=O)Nc1ccccc1 [1Ai-2383]
2. Cc1ccc(C)n1-c1cc([N+](=O)[O-])ccc1N1CCN(C(=O)c2ccccc2)CC1 [1Ai-9008]

-0.18
1.00

---

- target-under-test: eIF1A (Homo sapiens, UniProt P47813)
- Construct: His-bdSUMO (cleaved yes); made in house; host or cells: E. coli BL-21
- Sequence (P47813 whole entry): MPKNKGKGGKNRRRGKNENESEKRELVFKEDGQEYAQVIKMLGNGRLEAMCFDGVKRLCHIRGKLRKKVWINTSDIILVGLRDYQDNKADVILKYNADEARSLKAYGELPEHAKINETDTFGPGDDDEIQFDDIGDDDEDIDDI
- Assay type: binding
- particulars: summary table; fluorescence binding assay; read-out: IC50 concentration (µM), WT eIF1A
For each of the molecules below, state its log10(IC50).
The base-10 logarithm of IC50, taken with IC50 in µM, is what appears here.

{"molecule": "O=C(COc1ccccc1[N+](=O)[O-])NCc1ccc(-c2ccc(Br)cc2)o1", "log10(IC50)": 1.32}
{"molecule": "Cc1cc(-n2c(C)cc(-c3csc(N)n3)c2C)no1", "log10(IC50)": 1.33}

Quick request: log10(IC50) for each listed item, please.
1. COc1cccc(Nc2nc(-c3ccc(NC(C)=O)cc3)c(C)s2)c1
2. Cc1ccc(C(=O)c2cc(O)c(O)c([N+](=O)[O-])c2)cc1
3. COc1ccc(C=C2CSc3ccc(Cl)cc3C2=O)cc1O
4. CN1CCN(S(=O)(=O)c2ccc(N3Cc4cc5c(cc4C4(CCCC4)C3)OCCO5)nc2)CC1
5. CN(C)CC1CCn2cc(c3ccccc32)C2=C(C(=O)NC2=O)c2cn(c3ccccc23)CCO1 (centres unmarked)
6. CCOc1cc(C(=O)Nc2ccc(Cl)c(-c3nc4ccccc4[nH]3)c2)cc(OCC)c1OCC

1.31
-0.05
0.78
1.55
1.32
1.39

---

- target-under-test: eIF1A (Homo sapiens)
- Construct: His-bdSUMO (cleaved yes); made in house; host or cells: E. coli BL-21
- Format: binding
- particulars: eIF1A; from the titration data; read-out: IC50 (eIF1A titration block)
property-measured: pIC50
Give bare numbers, as −log10 of the molar value.

{"molecule": "CCOC(=O)c1ccsc1NC(=O)CN1C(=O)NC(C)(c2cccc3ccccc23)C1=O (stereo not drawn)", "target-under-test": "eIF1A (Homo sapiens)", "pIC50": 4.15}

Quick request: pIC50 for each listed item, please.
1. CN1CCN(S(=O)(=O)c2ccc(N3Cc4cc5c(cc4C4(CCCC4)C3)OCCO5)nc2)CC1
2. CN(C)CC1CCn2cc(c3ccccc32)C2=C(C(=O)NC2=O)c2cn(c3ccccc23)CCO1 (stereo not drawn)

1: 4.45; 2: 4.68

---

For each of the compounds below, state its GFP reporter ratio nsp1/gfp, avg.
- target-under-test: UniProt P0DTD1
One number for each entry.

In the examples that follow, each entry is paired with its recorded GFP reporter ratio nsp1/gfp, avg.
{"compound": "Cc1cc(-n2c(C)cc(-c3csc(N)n3)c2C)no1", "GFP reporter ratio nsp1/gfp, avg": 0.5623}
{"compound": "O=c1cc(CN2CCOCC2)occ1OCCCCCSc1ccnc2cc(C(F)(F)F)ccc12", "GFP reporter ratio nsp1/gfp, avg": 0.5107}
{"compound": "CCOC(=O)c1ccsc1NC(=O)CN1C(=O)NC(C)(c2cccc3ccccc23)C1=O (stereo not drawn)", "GFP reporter ratio nsp1/gfp, avg": 0.5997}
{"compound": "Cc1ccc(C(=O)c2cc(O)c(O)c([N+](=O)[O-])c2)cc1", "GFP reporter ratio nsp1/gfp, avg": 0.4237}
{"compound": "COc1ccc(CN(Cc2nn3c(=O)cc(C)nc3s2)C(C)Cc2cccs2)cc1 (stereo not drawn)", "GFP reporter ratio nsp1/gfp, avg": 0.4183}
{"compound": "COc1cccc(Nc2nc(-c3ccc(NC(C)=O)cc3)c(C)s2)c1", "GFP reporter ratio nsp1/gfp, avg": 0.4109}
{"compound": "Cc1ccc(C)n1-c1cc([N+](=O)[O-])ccc1N1CCN(C(=O)c2ccccc2)CC1", "GFP reporter ratio nsp1/gfp, avg": 0.4707}
{"compound": "CN(C)CC1CCn2cc(c3ccccc32)C2=C(C(=O)NC2=O)c2cn(c3ccccc23)CCO1 (stereo not drawn)", "GFP reporter ratio nsp1/gfp, avg": 0.4084}

Field: next compound
Endpoint output: GFP reporter ratio nsp1/gfp, avg of Oc1cc(Cl)ccc1Oc1ccc(Cl)cc1Cl . Value?
0.4361

---

- target-under-test: eIF1A without NTT (Homo sapiens, UniProt P47813)
- Construct: His-bdSUMO (cleaved yes); made in house; host or cells: E. coli (BL-21)
- Sequence (P47813 31-144 limits assumed): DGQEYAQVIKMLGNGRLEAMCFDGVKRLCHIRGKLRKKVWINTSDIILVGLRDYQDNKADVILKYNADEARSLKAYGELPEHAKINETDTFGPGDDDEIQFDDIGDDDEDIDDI
- experimental-protocol: Fluorescence binding assay with NTT-truncated eIF1A
- particulars: summary table; fluorescence binding assay; read-out: IC50 concentration (µM), NTT truncation
The label is Satisfied for IC50 below 40 µM and Not satisfied for IC50 equal to or exceeding 40 µM.

Worked set:
{"molecule": "CN(C)CC1CCn2cc(c3ccccc32)C2=C(C(=O)NC2=O)c2cn(c3ccccc23)CCO1 (stereo not drawn)", "category-label": "Satisfied"}
{"molecule": "Cc1cc(-n2c(C)cc(-c3csc(N)n3)c2C)no1", "category-label": "Satisfied"}
{"molecule": "O=C(COc1ccccc1[N+](=O)[O-])NCc1ccc(-c2ccc(Br)cc2)o1", "category-label": "Not satisfied"}
{"molecule": "CN1CCN(S(=O)(=O)c2ccc(N3Cc4cc5c(cc4C4(CCCC4)C3)OCCO5)nc2)CC1", "category-label": "Not satisfied"}

Strictly below 40 µM in IC50? CCOc1cc(C(=O)Nc2ccc(Cl)c(-c3nc4ccccc4[nH]3)c2)cc(OCC)c1OCC
Not satisfied

Strictly below 40 µM in IC50? COc1cccc(Nc2nc(-c3ccc(NC(C)=O)cc3)c(C)s2)c1
Satisfied

---

- target-under-test: RPS10 (Homo sapiens)
- Construct: made in house; host or cells: E. coli BL-21
- Type: binding
- particulars: 1Ai conc. 256 uM
The label is Y for RPS10 fluorescence ratio to control below 1 and N for RPS10 fluorescence ratio to control equal to or exceeding 1.

{"molecule": "COc1ccc2oc(C(=O)OC(C)C(=O)Nc3sccc3C(N)=O)c(C)c2c1 (stereo not shown) [1Ai-3044]", "category-label": "N"}

Strictly below 1 in RPS10 fluorescence ratio to control? Cc1ccc(C)n1-c1cc([N+](=O)[O-])ccc1N1CCN(C(=O)c2ccccc2)CC1 [1Ai-9008]
N

Strictly below 1 in RPS10 fluorescence ratio to control? Cc1ccc(C(=O)c2cc(O)c(O)c([N+](=O)[O-])c2)cc1 [1Ai-5576]
Y

Strictly below 1 in RPS10 fluorescence ratio to control? COc1cccc(Nc2nc(-c3ccc(NC(C)=O)cc3)c(C)s2)c1 [1Ai-1869]
Y

Strictly below 1 in RPS10 fluorescence ratio to control? Cc1cc(-n2c(C)cc(-c3csc(N)n3)c2C)no1 [1Ai-6464]
Y

Strictly below 1 in RPS10 fluorescence ratio to control? COc1ccc(C=C2CSc3ccc(Cl)cc3C2=O)cc1O [1Ai-5175]
Y

Strictly below 1 in RPS10 fluorescence ratio to control? Oc1cc(Cl)ccc1Oc1ccc(Cl)cc1Cl [1Ai-6248]
N

Strictly below 1 in RPS10 fluorescence ratio to control? C=CCNC(=O)CN1CCN(Cc2nc3cc(-c4ccc(Cl)cc4)sc3c(=O)[nH]2)CC1 [1Ai-1524]
Y

Strictly below 1 in RPS10 fluorescence ratio to control? CCOc1cc(C(=O)Nc2ccc(Cl)c(-c3nc4ccccc4[nH]3)c2)cc(OCC)c1OCC [1Ai-5677]
N

Strictly below 1 in RPS10 fluorescence ratio to control? O=C(C=Cc1ccc(Cl)s1)Nc1cccc2ncccc12 [1Ai-4860]
Y

Strictly below 1 in RPS10 fluorescence ratio to control? CN(C)CC1CCn2cc(c3ccccc32)C2=C(C(=O)NC2=O)c2cn(c3ccccc23)CCO1 (stereo not shown) [1Ai-5662]
Y

Strictly below 1 in RPS10 fluorescence ratio to control? O=C(COc1ccccc1[N+](=O)[O-])NCc1ccc(-c2ccc(Br)cc2)o1 [1Ai-4700]
Y

Strictly below 1 in RPS10 fluorescence ratio to control? O=C(CSc1nc(-c2ccccc2)cn1-c1ccccc1)NC(=O)Nc1ccccc1 [1Ai-2383]
Y

Strictly below 1 in RPS10 fluorescence ratio to control? CN1CCN(S(=O)(=O)c2ccc(N3Cc4cc5c(cc4C4(CCCC4)C3)OCCO5)nc2)CC1 [1Ai-3564]
N

Strictly below 1 in RPS10 fluorescence ratio to control? CCOC(=O)c1ccsc1NC(=O)CN1C(=O)NC(C)(c2cccc3ccccc23)C1=O (stereo not shown) [1Ai-1861]
Y

Strictly below 1 in RPS10 fluorescence ratio to control? O=c1cc(CN2CCOCC2)occ1OCCCCCSc1ccnc2cc(C(F)(F)F)ccc12 [1Ai-5730]
N
